# Test system: PMA-differentiated U937 cells
# method summary: MTT Assay (cell viability)
# Format: cell-based, Human
# setup conditions: percentage loss of cell viability; 4 hr in 5% FCS
property name: Cell Viability MTT Assay in D-U937 cells at 4 hr

INSERT INTO results (substance_smiles, system_under_test, endpoint_result) VALUES
  ('Nc1ncnc2c1c(-c1ccc(O)cc1)nn2Cc1nc2cccc(C#CCCCC(=O)N3CCOCC3)c2c(=O)n1Cc1cc2ccccc2s1', 'PMA-differentiated U937 cells', '− (− <30%)'),
  ('COCC#Cc1cccc2nc(Cn3nc(-c4ccc(O)cc4)c4c(N)ncnc43)n(Cc3ccccc3Cl)c(=O)c12', 'PMA-differentiated U937 cells', '− (− <30%)'),
  ('C#Cc1cccc2nc(Cn3nc(-c4ccc(O)cc4)c4c(N)ncnc43)n(Cc3ccc(F)cc3)c(=O)c12', 'PMA-differentiated U937 cells', '− (− <30%)'),
  ('C#Cc1cccc2nc(Cn3nc(-c4cccc(O)c4)c4c(N)ncnc43)n(Cc3ccc(Cl)cc3)c(=O)c12', 'PMA-differentiated U937 cells', '− (− <30%)');
